Values were extracted from paper PMC11827629.

- TARGET ENTITY: thrombin, N-terminally 2PCA-labeled (Cy5, biotin) (UniProt P00734;P00734 328-363;364-622)
- EXPERIMENT DESCRIPTION: single-molecule FRET (koff/kon); koff 0.3 +/- 0.1 s-1; kon 1.1 +/- 0.1 e8 M-1 s-1; smFRET: 1x PBS with 2.5 mM PCA, 0.155 U/ul PCD, 1 mM Trolox, 5 nM Cy3-aptamer, 23 +/- 1 C, pH not stated; QCM: PBS, flow 45 +/- 3 ul/min, thrombin 0.06-16.5 nM
READOUT LABEL: Kd (nM)
Give bare numbers, in nM.

Prompt: Give recorded Kd. TTTTTTTGTGACGTAGGTTGGTGTGGTTGGGGCGTCAC (structured_DNA) [RE31 single molecule exp.]
Response: 2.9
